I'd be grateful if you could share measured IC50 for these entries.
Target: 72 kDa type IV collagenase (Homo sapiens, UniProt P08253)
Sequence (P08253 whole entry): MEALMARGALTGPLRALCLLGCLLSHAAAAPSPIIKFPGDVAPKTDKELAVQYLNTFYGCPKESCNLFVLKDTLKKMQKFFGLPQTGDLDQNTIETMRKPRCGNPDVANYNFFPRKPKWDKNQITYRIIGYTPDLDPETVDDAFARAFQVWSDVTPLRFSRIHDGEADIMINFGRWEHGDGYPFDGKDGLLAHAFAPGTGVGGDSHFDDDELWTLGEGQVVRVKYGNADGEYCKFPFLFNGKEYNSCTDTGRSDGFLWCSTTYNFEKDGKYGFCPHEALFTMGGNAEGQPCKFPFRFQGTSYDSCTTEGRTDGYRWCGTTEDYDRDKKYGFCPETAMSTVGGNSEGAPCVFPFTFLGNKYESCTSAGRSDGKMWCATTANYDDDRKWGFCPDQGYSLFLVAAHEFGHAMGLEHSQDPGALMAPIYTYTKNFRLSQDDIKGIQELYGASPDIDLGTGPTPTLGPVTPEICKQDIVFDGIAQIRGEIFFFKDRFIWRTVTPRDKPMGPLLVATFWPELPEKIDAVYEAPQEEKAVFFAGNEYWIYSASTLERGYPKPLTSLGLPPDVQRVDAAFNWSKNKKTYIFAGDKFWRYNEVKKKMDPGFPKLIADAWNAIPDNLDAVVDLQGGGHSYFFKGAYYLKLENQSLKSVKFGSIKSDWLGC
Test: Inhibition MMP-2 (unknown origin) using Mca-Lys-Pro-Leu-Gly-Leu-Dpa-Ala-Arg-NH2 as substrate preincubated for 5 mins followed by substrate addition measured for 30 mins by fluorometric assay
Settings: read-out: IC50
The reply should be a number in µM, with the unit left off.

Enquiry: For the molecule O=C(NO)[C@H]1C[C@H](NS(=O)(=O)c2ccc(-c3ccccc3)cc2)CN1S(=O)(=O)c1ccc(Cl)c(Cl)c1 , what IC50 is on record?
Return: 0.36

Enquiry: Queued: COc1ccc(C(=O)N[C@@H]2C[C@H](C(=O)NO)N(S(=O)(=O)c3ccc(Cl)c(Cl)c3)C2)c(OC)c1
Return: 0.45

Enquiry: Queued: O=C(N[C@@H]1C[C@H](C(=O)NO)N(S(=O)(=O)c2ccc(Cl)c(Cl)c2)C1)c1cccs1
Return: 0.144

====

I'd be grateful if you could share measured log10(IC50) for these entries.
Target: Matrix metalloproteinase-9 (Homo sapiens, UniProt P14780)
Sequence (P14780 whole entry): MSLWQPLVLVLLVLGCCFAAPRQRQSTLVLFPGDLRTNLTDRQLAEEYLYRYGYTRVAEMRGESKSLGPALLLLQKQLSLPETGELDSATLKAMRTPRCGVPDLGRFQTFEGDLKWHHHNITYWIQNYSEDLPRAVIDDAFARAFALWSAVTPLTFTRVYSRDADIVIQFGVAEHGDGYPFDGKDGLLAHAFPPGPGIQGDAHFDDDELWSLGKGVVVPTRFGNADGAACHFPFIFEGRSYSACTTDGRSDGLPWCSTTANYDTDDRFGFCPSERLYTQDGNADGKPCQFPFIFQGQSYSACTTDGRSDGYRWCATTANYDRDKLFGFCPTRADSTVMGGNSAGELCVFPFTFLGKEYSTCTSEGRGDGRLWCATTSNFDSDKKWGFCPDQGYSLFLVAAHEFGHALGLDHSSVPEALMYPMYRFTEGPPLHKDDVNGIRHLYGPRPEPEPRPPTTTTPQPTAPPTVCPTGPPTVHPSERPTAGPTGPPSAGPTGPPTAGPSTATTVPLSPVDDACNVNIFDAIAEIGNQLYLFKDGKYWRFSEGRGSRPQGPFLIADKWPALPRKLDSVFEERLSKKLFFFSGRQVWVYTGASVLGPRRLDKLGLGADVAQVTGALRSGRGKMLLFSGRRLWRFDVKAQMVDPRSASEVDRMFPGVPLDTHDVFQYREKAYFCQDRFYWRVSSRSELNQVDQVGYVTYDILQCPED
Test: Inhibition MMP-9 (unknown origin) using Mca-Lys-Pro-Leu-Gly-Leu-Dpa-Ala-Arg-NH2 as substrate preincubated for 5 mins followed by substrate addition measured for 30 mins by fluorometric assay
Settings: read-out: IC50
In plain terms, each number is the log10 of measured IC50 in nM.

Enquiry: For the molecule O=C(/C=C/c1ccco1)N[C@H]1C[C@H](C(=O)NO)N(S(=O)(=O)c2ccc(Cl)c(Cl)c2)C1 , what log10(IC50) is on record?
Return: 2.56

Enquiry: Queued: O=C(NO)[C@H]1C[C@H](n2cc(-c3ccccc3)nn2)CN1S(=O)(=O)c1ccc(Cl)c(Cl)c1
Return: 3.08

Enquiry: Queued: COc1ccc(C(=O)N[C@@H]2C[C@H](C(=O)NO)N(S(=O)(=O)c3ccc(Cl)c(Cl)c3)C2)c(OC)c1
Return: 2.75

Enquiry: Queued: O=C(NO)[C@H]1C[C@@H](OCc2ccccc2)CN1S(=O)(=O)c1ccc(Cl)c(Cl)c1
Return: 2.95

Enquiry: Queued: O=C(NO)[C@H]1C[C@H](NS(=O)(=O)c2ccc(-c3ccccc3)cc2)CN1S(=O)(=O)c1ccc(Cl)c(Cl)c1
Return: 1.78

Enquiry: Queued: O=C(N[C@@H]1C[C@H](C(=O)NO)N(S(=O)(=O)c2ccc(Cl)c(Cl)c2)C1)c1cccs1
Return: 2.00

Enquiry: Queued: COc1ccc(C(=O)N[C@H]2C[C@H](C(=O)NO)N(S(=O)(=O)c3ccc(Cl)c(Cl)c3)C2)c(OC)c1
Return: 3.23

Enquiry: Queued: O=C(NO)[C@H]1C[C@@H](NS(=O)(=O)c2ccc(-c3ccccc3)cc2)CN1S(=O)(=O)c1ccc(Cl)c(Cl)c1
Return: 2.77
